target_entity: ecUlaA (Escherichia coli, UniProt P39301, T86P)
Construct: homologue genes cloned in pET21b with C-terminal His8, E. coli C43(DE3)
test: isothermal titration calorimetry
pKd: −log10 of the molar value.
experimental_endpoint: pKd

O=C1O[C@H]([C@@H](O)CO)C(O)=C1O [vitamin C]	~4.58
